# Test protocol: Permeability from apical to basal side of human Caco2 cells
# Format: ADME, cell-based
# Run parameters: Caco-2, read-out: permeability
Measured metric: Papp A→B (nm/s)

Record excerpt, results attached:
Smiles input: Cc1cc(CCC(=O)O)cc(C)c1-c1nc2ccc(C(=O)Nc3ccc(C(C)(C)C)cc3)cc2[nH]1
U: nm/s
Papp A→B: 7
--
Smiles input: Cc1ccc(NC(=O)c2ccc3nc(-c4c(C)cc(CCC(=O)O)cc4C)[nH]c3c2)cc1C
U: nm/s
Papp A→B: 5.5

(a) Cc1ccc(NC(=O)c2ccc3nc(-c4c(C)cc(NCC(=O)O)cc4C)[nH]c3c2)cc1C
(b) Cc1ccc(NC(=O)c2ccc3nc(-c4c(C)cc(OCC(=O)O)cc4C)[nH]c3c2)cc1C
In: Between these two entries, a and b , state which has the higher Papp A→B. Selection: enter the item's label.
Out: b
(b: 13 nm/s, a: 6.5 nm/s)
